As a worked illustration, we turn to TOX HELA pCC50 data collected for HeLa cells.

{"columns": ["Compound", "TOX HELA pCC50"],
 "data": [
  ["Cc1cccc2ncnc(N3CCCCC3c3cc4nc5c(cn4n3)CCCC5)c12 (stereo not drawn) [Compound P18]", 4.3],
  ["Cc1ccc2nc(NS(C)(=O)=O)nc(N3CCCCC3c3cc4nc5c(c(N6CCOCC6)n4n3)CCCC5)c2c1 (stereo not drawn) [Compound P9]", 4.3],
  ["Cc1cccc2nc(NS(C)(=O)=O)nc(N3CCCCC3c3cc4nc5c(c(N6CCOCC6)n4n3)CCCC5)c12 (stereo not drawn) [Compound P7]", 4.2],
  ["Cc1ccc(NS(C)(=O)=O)c(C(=O)N2CCCC[C@@H]2c2cc3nc4c(c(N5CCOCC5)n3n2)CCCC4)c1 [Compound P2]", 4.3],
  ["Cc1ccc(NS(C)(=O)=O)c(C(=O)N2CCCCC2c2cc3nc4c(cn3n2)CCCC4)c1 (stereo not drawn) [Compound P17]", 4.6],
  ["Cc1ccc(NS(C)(=O)=O)c(C(=O)N2CCCCC2c2cc3nc4c(c(N(C)C)n3n2)CCCC4)c1 (stereo not drawn) [Compound P15]", 4.6],
  ["Cc1ccc(NS(C)(=O)=O)c(C(=O)N2CCCCC2c2cc3nc4c(c(N)n3n2)CCCC4)c1 (stereo not drawn) [Compound P19]", 4.3],
  ["Cc1ccc(NS(C)(=O)=O)c(C(=O)N2CCCCC2c2cc3nc4c(c(N5CCOCC5)n3n2)CCOC4)c1 (stereo not drawn) [Compound P28]", 4.6],
  ["Cc1ccc(NS(C)(=O)=O)c(C(=O)N2CCCCC2c2cc3nc(N(C)C)c4c(n3n2)N(C)CCC4)c1 (stereo not drawn) [Compound P27]", 4.3],
  ["Cc1ccc(NS(C)(=O)=O)c(C(=O)N2CCCCC2c2cc3nc4c(c(N5CCOCC5)n3n2)COCC4)c1 (stereo not drawn) [Compound P34]", 4.6],
  ["Cc1cccc2ncnc(N3CCCC[C@@H]3c3cc4nc5c(c(C)n4n3)CCCC5)c12 [Compound P37]", 4.4],
  ["Cc1ccc(NS(C)(=O)=O)c(C(=O)N2CCCCC2c2cc3nc4c(c(N5CCOCC5)n3n2)CCCC4)c1 (racemic) [Compound P1]", 4.4],
  ["FC(F)(F)c1cccc2ncnc(N3CCCCC3c3cc4nc5c(c(N6CCOCC6)n4n3)CCCC5)c12 (stereo not drawn) [Compound P11]", 4.7],
  ["Cc1cccc2nc(NS(C)(=O)=O)nc(N3CCCCC3c3cc4nc5c(c(N6CCOCC6)n4n3)COCC5)c12 (stereo not drawn) [Compound P32]", 4],
  ["CCc1ccc2ncnc(N3CCCCC3c3cc4nc5c(c(N6CCOCC6)n4n3)CCCC5)c2c1C (stereo not drawn) [Compound P13]", 4.7]
]}

====

HeLa cells: recorded TOX HELA pCC50 for assorted compounds
Recorded metric: TOX HELA pCC50

{"columns": ["Compound", "Recorded metric", "Numeric result"],
 "data": [
  ["Cc1nc2cc([C@H]3CCCCN3c3ncnc4cccc(C)c34)nn2c2c1CCCC2 [Compound P39]", "TOX HELA pCC50", 4.9],
  ["Cc1cccc2ncnc(N3CCCCC3c3cc4nc5c(c(N6CCOCC6)n4n3)CCC5)c12 (centres unmarked) [Compound P21]", "TOX HELA pCC50", 4.6],
  ["Cc1nc2cc(C3CCCCN3c3ncnc4cccc(C)c34)nn2c2c1CCCC2 (racemic) [Compound P36]", "TOX HELA pCC50", 4.6],
  ["Cc1cccc2nc(Cl)nc(N3CCCCC3c3cc4nc5c(c(N6CCOCC6)n4n3)CCCC5)c12 (centres unmarked) [Compound P6]", "TOX HELA pCC50", 4.8],
  ["Cc1ccc2nc(Cl)nc(N3CCCCC3c3cc4nc5c(c(N6CCOCC6)n4n3)CCCC5)c2c1 (centres unmarked) [Compound P8]", "TOX HELA pCC50", 4.5],
  ["Cc1ccc(NS(C)(=O)=O)c(C(=O)N2CCCCC2c2cc3nc4c(c(N5CCOCC5)n3n2)CCC4)c1 (centres unmarked) [Compound P20]", "TOX HELA pCC50", 4.2],
  ["Cc1cccc2ncnc(N3CCCCC3c3cc4nc5c(c(N(C)C)n4n3)CCN5C)c12 (centres unmarked) [Compound P42]", "TOX HELA pCC50", 4.6],
  ["Cc1cccc2ncnc(N3CCCCC3c3cc4nc5c(c(N6CCCC6)n4n3)CCC5)c12 (centres unmarked) [Compound P22]", "TOX HELA pCC50", 4.6],
  ["Cc1cccc2ncnc(N3CCCCC3c3cc4nc5c(c(N(C)C)n4n3)CCCC5)c12 (centres unmarked) [Compound P16]", "TOX HELA pCC50", 4],
  ["Cc1ccc(NS(C)(=O)=O)c(C(=O)N2CCCCC2c2cc3nc4c(c(O)n3n2)CCCC4)c1 (centres unmarked) [Compound P14]", "TOX HELA pCC50", 4.3],
  ["CCOc1nc(N2CCCCC2c2cc3nc4c(c(N5CCOCC5)n3n2)COCC4)c2c(C)cccc2n1 (centres unmarked) [Compound P33]", "TOX HELA pCC50", 4.4],
  ["Cc1ccc(NS(C)(=O)=O)c(C(=O)N2CCCCC2c2cc3nc4c(c(N5CCOCC5)n3n2)CCCCC4)c1 (centres unmarked) [Compound P23]", "TOX HELA pCC50", 4.6],
  ["Cc1cccc2ncnc(N3CCCC[C@H]3c3cc4nc5c(c(C)n4n3)CCCC5)c12 [Compound P38]", "TOX HELA pCC50", 4.6],
  ["Cc1ccc2ncnc(N3CCCCC3c3cc4nc5c(c(N6CCOCC6)n4n3)CCCC5)c2c1 (centres unmarked) [Compound P4]", "TOX HELA pCC50", 4.7],
  ["Cc1nc2cc([C@@H]3CCCCN3c3ncnc4cccc(C)c34)nn2c2c1CCCC2 [Compound P40]", "TOX HELA pCC50", 4.7],
  ["Cc1cccc2nc(NS(C)(=O)=O)nc(N3CCCCC3c3cc4nc5c(c(N6CCOCC6)n4n3)CCC5)c12 (centres unmarked) [Compound P41]", "TOX HELA pCC50", 4],
  ["Cc1cccc2ncnc(N3CCCCC3c3cc4nc5c(c(N6CCOCC6)n4n3)CCCC5)c12 (centres unmarked) [Compound P5]", "TOX HELA pCC50", 4.6],
  ["Cc1ccc(NS(C)(=O)=O)c(C(=O)N2CCCCC2c2cc3nc4c(c(N5CCOCC5)n3n2)COC4)c1 (centres unmarked) [Compound P25]", "TOX HELA pCC50", 4],
  ["Cc1ccc(NS(C)(=O)=O)c(C(=O)N2CCCCC2c2cc3nc4c(c(N(C)C)n3n2)CCCN4C)c1 (centres unmarked) [Compound P26]", "TOX HELA pCC50", 4.4],
  ["Cc1cccc2ncnc(N3CCCCC3c3cc4nc5c(c(N6CCOCC6)n4n3)COCC5)c12 (centres unmarked) [Compound P30]", "TOX HELA pCC50", 4],
  ["Cc1cccc2ncnc(N3CCCCC3c3cc4nc5c(c(N6CCOCC6)n4n3)CCOC5)c12 (centres unmarked) [Compound P29]", "TOX HELA pCC50", 4],
  ["Fc1cccc2ncnc(N3CCCCC3c3cc4nc5c(c(N6CCOCC6)n4n3)CCCC5)c12 (centres unmarked) [Compound P10]", "TOX HELA pCC50", 4.6],
  ["Cc1cccc2ncnc(N3CCCCC3c3cc4nc5c(c(C)n4n3)CCCC5)c12 (centres unmarked) [Compound P35]", "TOX HELA pCC50", 4.6],
  ["Cc1ccc(NS(C)(=O)=O)c(C(=O)N2CCCC[C@H]2c2cc3nc4c(c(N5CCOCC5)n3n2)CCCC4)c1 [Compound P3]", "TOX HELA pCC50", 4.5],
  ["COc1cccc2ncnc(N3CCCCC3c3cc4nc5c(c(N6CCOCC6)n4n3)CCCC5)c12 (centres unmarked) [Compound P12]", "TOX HELA pCC50", 4.4],
  ["Cc1cccc2ncnc(N3CCCCC3c3cc4nc5c(c(N6CCOCC6)n4n3)CCCCC5)c12 (centres unmarked) [Compound P24]", "TOX HELA pCC50", 4.8]
]}
